All values here come from patent US20250250328A1.

IC50, PSV assay for assorted binders
TARGET_ENTITY: HIV-1 envelope 3326_V4_C3 (HIV-1)
TEST_DETAILS: cell-based or functional assay

Solved entries (count: 5):
BINDER	IC50, PSV assay
bNAb15 (antibody, V domains shown) VH: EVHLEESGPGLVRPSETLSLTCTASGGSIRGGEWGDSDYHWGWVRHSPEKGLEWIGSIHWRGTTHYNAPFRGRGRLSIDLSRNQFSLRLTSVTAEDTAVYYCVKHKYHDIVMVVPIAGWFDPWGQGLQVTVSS VL: EIMMTQSPAILSVSPGDRATLSCRASQSVKNNLAWYQKRPGQAPRLLIFDTSSRASGIPARFSGGGSGTEFTLTVNSMQSEDFATYYCQQYEEWPRTFGQGTKVEIKR	> 500 nM
bNAb14 (antibody, V domains shown) VH: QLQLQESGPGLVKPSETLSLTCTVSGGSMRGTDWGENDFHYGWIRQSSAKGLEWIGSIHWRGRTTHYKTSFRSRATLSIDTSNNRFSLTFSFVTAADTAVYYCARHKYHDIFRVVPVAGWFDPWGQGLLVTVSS VL: EIVMTQSPPTLSVSPGETATLSCRASQNVKNNLAWYQLKPGQAPRLLIFDASSRAGGIPDRFSGSGYGTDFTLTVNSVQSEDFGDYFCQQYEEWPRTFGQGTKVDIKR	> 500 nM
bNAb16 (antibody, V domains shown) VH: EVQLVESGGGLVKPGGSLRLTCVASGFTFSDVWLNWVRQAPGKGLEWVGRIKSRTDGGTTDYAASVKGRFTISRDDSKNTLYLQMNSLKTEDTAVYSCTTDGFIMIRGVSEDYYYYYMDVWGKGTTVTVSS VL: QSVLTQPPSVSAAPGQKVTISCSGSSSNIGNNYVLWYQQFPGTAPKLLIYGNNKRPSGIPDRFSGSKSGTSATLGITGLQTGDEADYFCATWDSGLSADWVFGGGTKLTVLG	> 500 nM
bNAb23 (antibody, V domains shown) VH: QVQLLESGPGLVRPSETLTLTCSVFNSRVSGYYYSWIRQPPGRGLEWIASTHFSLRPSRNPSLLSRVTTSIDTERYQVFLNMRSVTAADTAVYFCARGDASGWRADYFPHWGQGTLVVVSS VL: QSVLTQPPSASGSPGQSVTISCTGTSSDIGASDYVSWYQQYPGEAPKVIIYDVTKRPSGVPDRFSGSKSGTTASLTVSGLQAEDEADYYCSSDAGRHTLLFGGGTKVTVLG	15.3 nM
bNAb19 (antibody, V domains shown) VH: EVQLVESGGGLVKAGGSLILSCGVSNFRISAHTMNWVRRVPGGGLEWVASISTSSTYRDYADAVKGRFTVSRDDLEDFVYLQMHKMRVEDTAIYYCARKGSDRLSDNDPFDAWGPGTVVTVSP VL: DVVMTQSPSTLSASVGDTITITCRASQSIETWLAWYQQKPGKAPKLLIYKASTLKTGVPSRFSGSGSGTEFTLTISGLQFDDFATYHCQHYAGYSATFGQGTRVEIKR	> 300 nM

input: What value of IC50, PSV assay has been reported for the following binder? bNAb18 (antibody, V domains shown) VH: QVQLVQSGAEVRKPGSSVTISCKPVGGTFTNFAIHWVRQAPGQGLEWVGGRVPVVGIYKYGKKFHDRLRLYEDDPMKTVFLELRSLTSDDTGVYYCTRWRGCGMCPYDTSSYYNDASDVWGPGTKVIVSA VL: EIVLTQSPVTLSLSSGETGTLSCRASQNISSSWIAWYQQRRGQVPRLLISAASARAAGIPDRFTGRGSGTDFTLTITRLEPEDFGVYSCQYYGGSFFTFGPGTQVDVKR
output: > 500 nM
